Numbers sourced from ChEMBL document CHEMBL1629431.

System: OVCAR-4
Experiment: Growth inhibition of human OVCAR4 cells at 10 uM after 48 hrs by coulter counter method
Format: functional
Settings: OVCAR-4, 48 h, read-out: GI
Readout Name: inhibition of growth at 10 µM
Give the number first and the unit second.

O=c1c2ccccc2nc(-n2ccnc2)n1-c1ccccc1
30%
COc1ccc(-n2c(SCC(=O)c3ccc(Cl)cc3)nc3ccccc3c2=O)cc1
32.1%
O=c1c2ccccc2nc(Nc2cc(O)nc(S)n2)n1-c1ccc(Cl)cc1
30%
CSc1nc2ccccc2c(=O)n1-c1ccc(Cl)cc1
30%
CCn1c(-n2ccnc2)nc2ccccc2c1=O
30%
NS(=O)(=O)c1ccc(Nc2nc3ccccc3c(=O)n2-c2ccc(Cl)cc2)cc1
30%
COc1ccc(C2NC(=O)Nc3ccc(C(=O)Nc4ccccn4)cc32)cc1 (stereo not given)
30%
COc1ccc(C2NC(=O)Nc3ccc(CNc4ccccn4)cc32)cc1 (stereo not given)
30%

// batch mode: one inhibition of growth at 10 µM value per listed entry
1. O=c1c2ccccc2nc(-n2ccnc2)n1-c1ccc(Cl)cc1
2. O=C1Nc2ccc(C(=O)Nc3ccccn3)cc2C(c2ccc(Cl)cc2)N1 (stereo not given)
3. COc1ccc(-n2c(Nc3ccc(S(N)(=O)=O)cc3)nc3ccccc3c2=O)cc1
4. COc1ccc(C(=O)CSc2nc3ccccc3c(=O)n2-c2ccc(OC)cc2)cc1
5. COc1ccc(-n2c(SC)nc3ccccc3c2=O)cc1
6. COc1ccc(-n2c(-n3ccnc3)nc3ccccc3c2=O)cc1

1. 30%
2. 30%
3. 30%
4. 30%
5. 30%
6. 30%

// batch mode: one inhibition of growth at 10 µM value per listed entry
1. CCn1c(SC)nc2ccccc2c1=O
2. COc1ccc(-c2nnc(Nc3nc4ccccc4c(=O)n3-c3ccccc3)s2)cc1
3. CCn1c(SCC(=O)c2ccc(OC)cc2)nc2ccccc2c1=O
4. COc1ccc(C(=O)CSc2nc3ccccc3c(=O)n2-c2ccc(Cl)cc2)cc1
5. O=C(CSc1nc2ccccc2c(=O)n1-c1ccc(Cl)cc1)c1ccc(Cl)cc1
6. O=c1c2ccccc2nc(Nc2nnc(-c3ccc(Cl)cc3)s2)n1-c1ccccc1

["30%", "30%", "30%", "53.5%", "30%", "30%"]

* * *

Test system: M14
Assay: Growth inhibition of human M14 cells at 10 uM after 48 hrs by coulter counter method
Type: functional
Conditions: M14, 48 h, read-out: GI
Give measured inhibition of growth at 10 µM for each item. Keep answers brief.
Numbers only, in %.

Illustrative cases are given below, each with its answer.
O=c1c2ccccc2nc(Nc2nnc(-c3ccc(Cl)cc3)s2)n1-c1ccccc1
30
O=c1c2ccccc2nc(Nc2cc(O)nc(S)n2)n1-c1ccc(Cl)cc1
30

// batch mode: one inhibition of growth at 10 µM value per listed entry
1. COc1ccc(C(=O)CSc2nc3ccccc3c(=O)n2-c2ccc(OC)cc2)cc1
2. COc1ccc(C2NC(=O)Nc3ccc(CNc4ccccn4)cc32)cc1 (centres undefined)
3. COc1ccc(-n2c(SC)nc3ccccc3c2=O)cc1
4. NS(=O)(=O)c1ccc(Nc2nc3ccccc3c(=O)n2-c2ccc(Cl)cc2)cc1
5. CCn1c(SC)nc2ccccc2c1=O
6. COc1ccc(-c2nnc(Nc3nc4ccccc4c(=O)n3-c3ccccc3)s2)cc1
7. O=c1c2ccccc2nc(-n2ccnc2)n1-c1ccc(Cl)cc1

30
30
30
30
30
30
30

* * *

Give measured inhibition of growth at 10 µM for each item. Keep answers brief.
Test system: T47D
Assay: Growth inhibition of human T47D cells at 10 uM after 48 hrs by coulter counter method
Type: functional
Conditions: read-out: GI
One number for each entry, in %.

Illustrative cases are given below, each with its answer.
COc1ccc(-n2c(SCC(=O)c3ccc(Cl)cc3)nc3ccccc3c2=O)cc1
30
CCn1c(SCC(=O)c2ccc(OC)cc2)nc2ccccc2c1=O
30

// batch mode: one inhibition of growth at 10 µM value per listed entry
1. COc1ccc(C2NC(=O)Nc3ccc(CNc4ccccn4)cc32)cc1 (stereo unspecified)
2. COc1ccc(-n2c(-n3ccnc3)nc3ccccc3c2=O)cc1
3. O=c1c2ccccc2nc(-n2ccnc2)n1-c1ccccc1
4. COc1ccc(C(=O)CSc2nc3ccccc3c(=O)n2-c2ccc(OC)cc2)cc1

33.1
30
30
30

// batch mode: one inhibition of growth at 10 µM value per listed entry
1. O=c1c2ccccc2nc(Nc2cc(O)nc(S)n2)n1-c1ccc(Cl)cc1
2. O=C1Nc2ccc(C(=O)Nc3ccccn3)cc2C(c2ccc(Cl)cc2)N1 (stereo unspecified)
3. COc1ccc(C(=O)CSc2nc3ccccc3c(=O)n2-c2ccc(Cl)cc2)cc1

30
44.9
30

// batch mode: one inhibition of growth at 10 µM value per listed entry
1. COc1ccc(-n2c(SC)nc3ccccc3c2=O)cc1
2. O=c1c2ccccc2nc(Nc2nnc(-c3ccc(Cl)cc3)s2)n1-c1ccccc1

[30, 30]

* * *

System: KM12
Test: Growth inhibition of human KM12 cells at 10 uM after 48 hrs by coulter counter method
Type: functional
Settings: KM12, 48 h, read-out: GI
Give measured inhibition of growth at 10 µM for each item. Keep answers brief.
Give bare numbers, in %.

O=C1Nc2ccc(C(=O)Nc3ccccn3)cc2C(c2ccc(Cl)cc2)N1 (stereo unspecified)
30
CCn1c(SC)nc2ccccc2c1=O
30
CSc1nc2ccccc2c(=O)n1-c1ccc(Cl)cc1
30
O=c1c2ccccc2nc(-n2ccnc2)n1-c1ccc(Cl)cc1
30
COc1ccc(C(=O)CSc2nc3ccccc3c(=O)n2-c2ccc(OC)cc2)cc1
30

// batch mode: one inhibition of growth at 10 µM value per listed entry
1. COc1ccc(C2NC(=O)Nc3ccc(CNc4ccccn4)cc32)cc1 (stereo unspecified)
2. COc1ccc(C(=O)CSc2nc3ccccc3c(=O)n2-c2ccc(Cl)cc2)cc1
3. CCn1c(SCC(=O)c2ccc(OC)cc2)nc2ccccc2c1=O
4. O=c1c2ccccc2nc(Nc2cc(O)nc(S)n2)n1-c1ccc(Cl)cc1
5. NS(=O)(=O)c1ccc(Nc2nc3ccccc3c(=O)n2-c2ccc(Cl)cc2)cc1

[30, 30, 30, 30, 30]

GET /values?readout=inhibition of growth at 10 µM&item= CCn1c(-n2ccnc2)nc2ccccc2c1=O
30

* * *

Give measured inhibition of growth at 10 µM for each item. Keep answers brief.
System: SNB-75
Assay: Growth inhibition of human SNB75 cells at 10 uM after 48 hrs by coulter counter method
Assay type: functional
Conditions: SNB-75, 48 h, read-out: GI
Answers are plain numbers, in %.

Illustrative cases are given below, each with its answer.
COc1ccc(-n2c(Nc3ccc(S(N)(=O)=O)cc3)nc3ccccc3c2=O)cc1
30
COc1ccc(C2NC(=O)Nc3ccc(CNc4ccccn4)cc32)cc1 (centres undefined)
30
O=c1c2ccccc2nc(Nc2nnc(-c3ccc(Cl)cc3)s2)n1-c1ccccc1
30
CCn1c(SC)nc2ccccc2c1=O
30
COc1ccc(C(=O)CSc2nc3ccccc3c(=O)n2-c2ccc(OC)cc2)cc1
30
NS(=O)(=O)c1ccc(Nc2nc3ccccc3c(=O)n2-c2ccc(Cl)cc2)cc1
30
COc1ccc(-n2c(-n3ccnc3)nc3ccccc3c2=O)cc1
30
O=C(CSc1nc2ccccc2c(=O)n1-c1ccc(Cl)cc1)c1ccc(Cl)cc1
30

Could you now consider this next molecule?
GET /values?readout=inhibition of growth at 10 µM&item= O=C1Nc2ccc(C(=O)Nc3ccccn3)cc2C(c2ccc(Cl)cc2)N1 (centres undefined)
30

* * *

System: HOP-92
Assay: Growth inhibition of human HOP92 cells at 10 uM after 48 hrs by coulter counter method
Format: functional
Details: HOP-92, 48 h, read-out: GI
Readout Name: inhibition of growth at 10 µM (%)
Give bare numbers, in %.

COc1ccc(C2NC(=O)Nc3ccc(CNc4ccccn4)cc32)cc1 (stereo unspecified)
30

// batch mode: one inhibition of growth at 10 µM value per listed entry
1. CSc1nc2ccccc2c(=O)n1-c1ccc(Cl)cc1
2. COc1ccc(-c2nnc(Nc3nc4ccccc4c(=O)n3-c3ccccc3)s2)cc1

1: 30; 2: 30

// batch mode: one inhibition of growth at 10 µM value per listed entry
1. COc1ccc(-n2c(Nc3ccc(S(N)(=O)=O)cc3)nc3ccccc3c2=O)cc1
2. CCn1c(-n2ccnc2)nc2ccccc2c1=O

1: 30; 2: 30

// batch mode: one inhibition of growth at 10 µM value per listed entry
1. O=c1c2ccccc2nc(Nc2cc(O)nc(S)n2)n1-c1ccc(Cl)cc1
2. CCn1c(SC)nc2ccccc2c1=O
3. O=c1c2ccccc2nc(Nc2nnc(-c3ccc(Cl)cc3)s2)n1-c1ccccc1
4. O=c1c2ccccc2nc(-n2ccnc2)n1-c1ccccc1
5. CCn1c(SCC(=O)c2ccc(OC)cc2)nc2ccccc2c1=O
6. COc1ccc(C(=O)CSc2nc3ccccc3c(=O)n2-c2ccc(OC)cc2)cc1

30
60.8
30
76.6
30
30
